- protocol description: Pharmacokinetics of acetate of Compound 22 in SD rats with single and repeated administration
- Format: in vivo
- condition info: female, Sprague-Dawley, rat, plasma, po, 189 mg/kg, Group 4 PO 189 mg/kg single, Female, read-out: Tmax (median)
reported metric: Tmax (h)
Give just the number in h; leave the unit off.

Bench note: what Tmax did CC(=O)O.Nc1nc(NCCc2ccc(NC3COC3)cc2)nc2nc(-c3ccco3)nn12 [Acetate of Compound 22] show?
1

###

- protocol description: Pharmacokinetics of acetate of Compound 22 in SD rats with single and repeated administration
- Format: in vivo
- condition info: female, Sprague-Dawley, rat, plasma, po, 63 mg/kg, Group 5 PO 63 mg/kg repeated, Day 7, Female, read-out: Tmax (median)
reported metric: Tmax (h)
State just the number; it will be interpreted in h.

For the compound shown here, CC(=O)O.Nc1nc(NCCc2ccc(NC3COC3)cc2)nc2nc(-c3ccco3)nn12 [Acetate of Compound 22] , give the reported Tmax.
1

###

- protocol description: Pharmacokinetics of acetate of Compound 22 in SD rats with single and repeated administration
- Format: in vivo
- condition info: male, Sprague-Dawley, rat, plasma, po, 21 mg/kg, Group 2 PO 21 mg/kg single, Male, read-out: T1/2 (converted)
reported metric: half-life
Number first, unit second.

Give the measured half-life of CC(=O)O.Nc1nc(NCCc2ccc(NC3COC3)cc2)nc2nc(-c3ccco3)nn12 [Acetate of Compound 22] .
3.21 h

###

- protocol description: Pharmacokinetics of acetate of Compound 22 in SD rats with single and repeated administration
- Type: in vivo
- condition info: both sexes, Sprague-Dawley, rat, plasma, Group 1 IV 2.0 mg/kg single, Overall
reported metric: C0

Return reported C0; argument: CC(=O)O.Nc1nc(NCCc2ccc(NC3COC3)cc2)nc2nc(-c3ccco3)nn12 [Acetate of Compound 22]
7600 ng/mL

###

- protocol description: Pharmacokinetics of test compounds in SD rats (15.2; IV and PO, mixed administration)
- Format: in vivo
- condition info: male, Sprague-Dawley, rat, plasma; SD rats, PO, 2 mg/kg, mixed administration (6 compounds per group)
// reported AUC(0-t) per item
Could you give me the number in ng·h/mL? Just the number is fine.

Using the record for N#Cc1ccc(CCNc2nc(N)n3nc(-c4ccco4)nc3n2)cc1 , report its AUC(0-t).
718

Next molecule: Nc1nc(NCCc2ccc(-c3ccccn3)cc2)nc2nc(-c3ccco3)nn12
597

Next record, please: COCCN(C)c1ccc(CCNc2nc(N)n3nc(-c4ccco4)nc3n2)cc1
142

Cool, now Nc1nc(NCCc2ccc(-c3ncccn3)cc2)nc2nc(-c3ccco3)nn12
420

And for COCCn1nnc(-c2ccc(CCNc3nc(N)n4nc(-c5ccco5)nc4n3)cc2)n1 ?
779

Now the same for COCCOCCNc1ccc(CCNc2nc(N)n3nc(-c4ccco4)nc3n2)cc1
757

Param item: CC(C)n1nnc(-c2ccc(CCNc3nc(N)n4nc(-c5ccco5)nc4n3)cc2)n1
818

Do the same for COCCOCCOCCNc1ccc(CCNc2nc(N)n3nc(-c4ccco4)nc3n2)cc1 please
160

###

- protocol description: Pharmacokinetics of Compounds 27, 40, 22 and 41 in ICR mice in different modes of administration
- Format: in vivo
- condition info: ICR, mouse, in vivo, iv, 1 mg/kg
reported metric: AUC(0-t) (ng·h/mL)
Enter your answer as a number in ng·h/mL; do not include the unit.

substance smiles	unit tag	AUC(0-t)
Nc1nc(NCCc2ccc(NC3COC3)cc2)nc2nc(-c3ccco3)nn12	ng·h/mL	925
Cn1nnc(-c2ccc(CCNc3nc(N)n4nc(-c5ccco5)nc4n3)cc2)n1	ng·h/mL	1540
CCn1nnc(-c2ccc(CCNc3nc(N)n4nc(-c5ccco5)nc4n3)cc2)n1	ng·h/mL	1110

For the next question, use this molecule.
So what does the record say about AUC(0-t) for COCCNc1ccc(CCNc2nc(N)n3nc(-c4ccco4)nc3n2)cc1 ?
495
